- Test system: P. aeruginosa PaΔ3-LAC-EcPore (efflux-deficient, hyperporinated)
- assay-notes: microbe, parasite or virus in culture
- Format: cell-based
- test-parameters: Pseudomonas aeruginosa; PaΔ3-LAC-EcPore; at least three independent measurements; read-out: MIC
measure: MIC (µg/mL)
One number for each entry, in µg/mL.

Example cases with answers are listed next.
CN[C@H](CC(C)C)C(=O)N[C@H]1C(=O)N[C@@H](CC(N)=O)C(=O)N[C@H]2C(=O)N[C@H]3C(=O)N[C@H](C(=O)N[C@H](C(=O)O)c4cc(O)cc(O)c4-c4cc3ccc4O)[C@H](O)c3ccc(c(Cl)c3)Oc3cc2cc(c3O[C@@H]2O[C@H](CO)[C@@H](O)[C@H](O)[C@H]2O[C@H]2C[C@](C)(N)[C@H](O)[C@H](C)O2)Oc2ccc(cc2Cl)[C@H]1O [Vancomycin] = 64
CC1(C)S[C@@H]2[C@H](NC(=O)C(C(=O)O)c3ccccc3)C(=O)N2[C@H]1C(=O)O (stereo partly drawn) [Carbenicillin] = 0.125

Here is the next item to consider.
Given item CCn1cc(C(=O)O)c(=O)c2ccc(C)nc21 [Nalidixic acid] , the value recorded as its MIC is 2

###

- Test system: A. baumannii Ab-ARA-EcPore (hyperporinated)
- assay-notes: microbe, parasite or virus in culture
- Assay type: cell-based
- test-parameters: Acinetobacter baumannii; Ab-ARA-EcPore; at least three independent measurements; read-out: MIC
measure: log10 of MIC (log10 of the value in µg/mL)
Give log10 of MIC, with MIC taken in µg/mL.

The cases that follow already have their log10 of MIC on record.
CC1(C)S[C@@H]2[C@H](NC(=O)C(C(=O)O)c3ccccc3)C(=O)N2[C@H]1C(=O)O (some centres unmarked) = 1.51
CN[C@H](CC(C)C)C(=O)N[C@H]1C(=O)N[C@@H](CC(N)=O)C(=O)N[C@H]2C(=O)N[C@H]3C(=O)N[C@H](C(=O)N[C@H](C(=O)O)c4cc(O)cc(O)c4-c4cc3ccc4O)[C@H](O)c3ccc(c(Cl)c3)Oc3cc2cc(c3O[C@@H]2O[C@H](CO)[C@@H](O)[C@H](O)[C@H]2O[C@H]2C[C@](C)(N)[C@H](O)[C@H](C)O2)Oc2ccc(cc2Cl)[C@H]1O = 2.11
CCn1cc(C(=O)O)c(=O)c2ccc(C)nc21 = 0.18
CC[C@H]1OC(=O)[C@H](C)[C@@H](O[C@H]2C[C@@](C)(OC)[C@@H](O)[C@H](C)O2)[C@H](C)[C@@H](O[C@@H]2O[C@H](C)C[C@H](N(C)C)[C@H]2O)[C@](C)(O)C[C@@H](C)CN(C)[C@H](C)[C@@H](O)[C@]1(C)O = -1.40
O=C(N[C@H](CO)[C@H](O)c1ccc([N+](=O)[O-])cc1)C(Cl)Cl = 0.90
C[C@@H](O)[C@H]1C(=O)N2C(C(=O)O)=C(S[C@@H]3CN[C@H](C(=O)N(C)C)C3)[C@H](C)[C@H]12 = -1.20
CO[C@@H]1[C@@H](OC(N)=O)[C@@H](O)[C@H](Oc2ccc3c(O)c(NC(=O)c4ccc(O)c(CC=C(C)C)c4)c(=O)oc3c2C)OC1(C)C = 0.19
CO[C@H]1/C=C/O[C@@]2(C)Oc3c(C)c(O)c4c(O)c(c(/C=N/N5CCN(C)CC5)c(O)c4c3C2=O)NC(=O)/C(C)=C\C=C\[C@H](C)[C@H](O)[C@@H](C)[C@@H](O)[C@@H](C)[C@H](OC(C)=O)[C@@H]1C = -0.30
Oc1cc(Cl)ccc1Oc1ccc(Cl)cc1Cl = -1.20
Cc1onc(-c2ccccc2Cl)c1C(=O)N[C@@H]1C(=O)N2[C@@H]1SC(C)(C)[C@@H]2C(=O)O = 2.11

The molecule listed as NCC[C@H](O)C(=O)N[C@@H]1C[C@H](N)[C@@H](O[C@H]2O[C@H](CN)[C@@H](O)[C@H](O)[C@H]2O)[C@H](O)[C@H]1O[C@H]1O[C@H](CO)[C@@H](O)[C@H](N)[C@H]1O has a reported log10 of MIC of 0.60
